# system-under-test: human Factor IXa (human, UniProt P00740 47-191; P00740 227-461)
# experiment-notes: cell-based or functional assay
Ends that are not written are not given here.
Reported EC50 [µM], FXa generation assay values for the following binders.
property: EC50 [µM], FXa generation assay

INSERT INTO measurements (binder, property, observed_measurement) VALUES
  ('PRIRTVGPGSRSASGKLTCLASACWLFWTGIA', 'EC50 [µM], FXa generation assay', '> 1 µM'),
  ('RRAPGKLTCLASYACLFWTGIA-NH2 (cysteine pairing not given here) [RRAPGKLTCLASYACLFWTGIA-CONH2]', 'EC50 [µM], FXa generation assay', '> 1 µM'),
  ('HLFGADWLGARTAPGKLTCLASYCWLFWTGIA [HLFGADWLGA RTAPG KLTCLASYCWLFWTGIA]', 'EC50 [µM], FXa generation assay', '> 1 µM');

The origin of these recorded values is patent US20140303084A1.
